Answer each item with its documented Height.
tested on: rice; assay: Low temperature assay on rice seedlings; assay type: in vivo; conditions: 0.0001 mg/l, 5 °C, 12 days
Numbers only, in cm.

Below are worked cases with known answers.
stdin: Look up Height: CC(C)[C@H](C)[C@@H](O)[C@H](O)[C@@H](C)[C@H]1CCC2C3CC(=O)C4C[C@H](O)CC[C@]4(C)C3CC[C@@]21C (stereo partly drawn) [BR4]
stdout: 7.6

stdin: Look up Height: CC(C)C[C@@H](O)[C@H](O)[C@@H](C)[C@H]1CCC2C3CC(=O)C4C[C@H](O)[C@H](O)C[C@]4(C)C3CC[C@@]21C (stereo partly drawn) [BR5]
stdout: 7.7

stdin: Look up Height: CC(C)(O)CC[C@@H](O)[C@](C)(O)[C@H]1CC[C@@]2(O)[C@@H]3CC(=O)[C@@H]4C[C@@H](O)[C@@H](O)C[C@]4(C)[C@H]3CC[C@]12C [BR6]
stdout: 7.8

stdin: Look up Height: CC[C@@H](C(C)C)[C@@H](O)[C@H](O)[C@@H](C)[C@H]1CCC2C3COC(=O)C4C[C@H](O)[C@H](O)C[C@]4(C)C3CC[C@@]21C (stereo partly drawn) [BR2]
stdout: 7.7

stdin: Look up Height: C=C(C(C)C)[C@@H](O)[C@H](O)[C@@H](C)[C@H]1CCC2C3COC(=O)C4C[C@H](O)[C@H](O)C[C@]4(C)C3CC[C@@]21C (stereo partly drawn) [BR3]
stdout: 7.7

***
stdin: Look up Height: CC(C)[C@H](C)[C@@H](O)[C@H](O)[C@@H](C)[C@H]1CCC2C3COC(=O)C4C[C@H](O)[C@H](O)C[C@]4(C)C3CC[C@@]21C (stereo partly drawn) [BR1]
stdout: 7.8

* * *

System: rice
Test: Low temperature assay on rice seedlings
Type: in vivo
Details: 0.0001 mg/l, 1 °C, 6 days
Excerpt: According to a low temperature assay, we measured parameters including plant height, number of leaf, area of leaf, number of tiller, weight of root at low temperature to completely determine effects of the natural brassinolide analogues on the resistance to low temperature of a plant. The natural brassinolide analogues, BR1, BR2, BR3, BR4, BR5 and BR6, used herein, were those prepared by the method of Example 1. […]
Answer each item with its documented Height.
Note: state the figure and append the unit.

Below are worked cases with known answers.
stdin: Look up Height: `CC(C)(O)CC[C@@H](O)[C@](C)(O)[C@H]1CC[C@@]2(O)[C@@H]3CC(=O)[C@@H]4C[C@@H](O)[C@@H](O)C[C@]4(C)[C@H]3CC[C@]12C`
stdout: 7.2 cm

stdin: Look up Height: CC(C)[C@H](C)[C@@H](O)[C@H](O)[C@@H](C)[C@H]1CCC2C3CC(=O)C4C[C@H](O)CC[C@]4(C)C3CC[C@@]21C (stereo partly drawn)
stdout: 6.9 cm

stdin: Look up Height: CC(C)C[C@@H](O)[C@H](O)[C@@H](C)[C@H]1CCC2C3CC(=O)C4C[C@H](O)[C@H](O)C[C@]4(C)C3CC[C@@]21C (stereo partly drawn)
stdout: 6.9 cm

stdin: Look up Height: C=C(C(C)C)[C@@H](O)[C@H](O)[C@@H](C)[C@H]1CCC2C3COC(=O)C4C[C@H](O)[C@H](O)C[C@]4(C)C3CC[C@@]21C (stereo partly drawn)
stdout: 6.9 cm

Batch lookup, Height per entry.
1. CC(C)[C@H](C)[C@@H](O)[C@H](O)[C@@H](C)[C@H]1CCC2C3COC(=O)C4C[C@H](O)[C@H](O)C[C@]4(C)C3CC[C@@]21C (stereo partly drawn)
2. CC[C@@H](C(C)C)[C@@H](O)[C@H](O)[C@@H](C)[C@H]1CCC2C3COC(=O)C4C[C@H](O)[C@H](O)C[C@]4(C)C3CC[C@@]21C (stereo partly drawn)

stdout:
1: 7.2 cm; 2: 6.9 cm
